tested on: TTR; assay: TTR editing in primary cyno hepatocytes treated with LNP formulated Spy Cas9 mRNA (SEQ ID NO: 2) and sgRNAs (Tables 17, 18); type: cell-based, cynomolgus monkey; conditions: Table 17, LNP formulated Spy Cas9 mRNA (SEQ ID NO: 2) and sgRNA, 12.5 ng mRNA, 3.9 nM sgRNA, 72 hours
Strand notation (5' to 3'): a small letter for the sugar, then the base; units joined by * are phosphorothioate-linked, units joined directly phosphodiester-linked; [ ] holds rarer units or linkages, { } end groups; capitals alone tell only the bases. m = 2'-O-methyl; r = 2'-OH (RNA)
Attribute: 12.5 ng mRNA, 3.9 nM sgRNA Avg % Edit
ATTRIBUTE MEASURED: 12.5 ng mRNA, 3.9 nM sgRNA Avg % Edit (%)

{"MOLECULE": "G000497: TTR sgRNA modified sequence, Human, SEQ ID No. 104; guide sequence of CR003335 (nucleic acid) guide: mC*mU*mG*rCrUrCrCrUrCrCrUrCrUrGrCrCrUrUrGrCrGrUrUrUrUrArGrAmGmCmUmAmGmAmAmAmUmAmGmCrArArGrUrUrArArArArUrArArGrGrCrUrArGrUrCrCrGrUrUrArUrCrAmAmCmUmUmGmAmAmAmAmAmGmUmGmGmCmAmCmCmGmAmGmUmCmGmGmUmGmCmU*mU*mU*mU", "RECORDED RESULT": 0.23}
{"MOLECULE": "G000499: TTR sgRNA modified sequence, Human, SEQ ID No. 106; guide sequence of CR005303 (nucleic acid) guide: mU*mG*mA*rArUrCrCrArArGrUrGrUrCrCrUrCrUrGrArGrUrUrUrUrArGrAmGmCmUmAmGmAmAmAmUmAmGmCrArArGrUrUrArArArArUrArArGrGrCrUrArGrUrCrCrGrUrUrArUrCrAmAmCmUmUmGmAmAmAmAmAmGmUmGmGmCmAmCmCmGmAmGmUmCmGmGmUmGmCmU*mU*mU*mU", "RECORDED RESULT": 14.63}
